Test system: SARS-CoV-2
runDescription: Virus yield reduction assay of SARS-CoV-2 in Calu-3 cells
Format: cell-based
recordedConditions: MOI 0.01, 36 h p.i., titration on Vero E6
measuredProperty: SARS-CoV-2 titers in supernatants of infected and treated Calu-3 cells

CC(C)[C@H](NC(=O)c1ccccc1NC(=O)c1ccccc1)C(=O)N[C@H](CO)C(C)C; confirmed active
CC(C)[C@H](NC(=O)c1ccccc1NC(=O)c1ccccn1)C(=O)N[C@H](CO)C(C)C; confirmed active

---

I'd appreciate it if you could supply CC50 at 72 h values for the items below.
runDescription: MTT cell viability assay in MRC-5 cells
Type: cell-based
recordedConditions: human

Lab note: measured CC50 at 72 h of CCC(C)NC(=O)c1ccccc1NC(=O)c1cccc(S(=O)(=O)Nc2ccccc2)c1 (stereo not drawn) [Compound 29] was > 250 µM

Lab note: measured CC50 at 72 h of CCC(C)C(NC(=O)C1N2C(=O)c3ccccc3C2SC1(C)C)C(=O)NC(CO)C(C)C (stereo not drawn) [Compound 6] was > 500 µM

Lab note: measured CC50 at 72 h of O=C(NCc1ccc(F)cc1)C(=O)NCC(c1cccnc1)N1CCN(c2ccccc2)CC1 (stereo not drawn) [Compound 4] was 300 µM

Lab note: measured CC50 at 72 h of CCOc1ccccc1NC(=O)C(=O)NCC(c1cccnc1)N1CCN(c2ccccc2)CC1 (stereo not drawn) [Compound 3] was > 500 µM

Lab note: measured CC50 at 72 h of NC(=O)c1c(NC(=O)c2cnn3c(C(F)(F)F)cc(-c4ccccc4)nc23)sc2c1CCCC2 [Compound 25] was > 250 µM

Lab note: measured CC50 at 72 h of O=C(Nc1ccc2c(c1)OCO2)c1nnc(C(=O)N2CCCC(C(=O)NCc3ccccc3)C2)s1 (stereo not drawn) [Compound 5] was 100 µM
